experiment: Protein binding in mouse plasma assessed as fraction unbound at 20 ug/ml using 14C-labeled ligand by rapid equilibrium dialysis; type: ADME, cell-free; conditions: at 20 µg/mL
reported-endpoint: fraction unbound at 20 ug/ml
Hey, just send me the number, nothing else.

// Cc1ncn(CC(=O)N2CCN(c3sc(C(F)(F)F)nc3-c3cnc(C(F)(F)F)nc3)C[C@H]2CCO)n1 : fraction unbound at 20 ug/ml value = 0.1

----------
experiment: Protein binding in dog plasma assessed as fraction unbound at 0.1 to 300 ug/ml using 14C-labeled ligand by rapid equilibrium dialysis; type: ADME, cell-free, Canis lupus familiaris; settings: at 0.1 to 300 µg/mL, dose 0.1-300 µg/ml
reported-endpoint: fraction unbound
Hey, just send me the number, nothing else.

// Cc1ncn(CC(=O)N2CCN(c3sc(C(F)(F)F)nc3-c3cnc(C(F)(F)F)nc3)C[C@H]2CCO)n1 : fraction unbound value = 0.48

----------
assay: Solubility of compound in FaSSIF at 37 degreeC; assay type: ADME
reported-endpoint: solubility (µg/mL)
Kindly answer with a numeric value in µg/mL, unit omitted.

// Cc1ncn(CC(=O)N2CCN(c3sc(C(F)(F)F)nc3-c3cnc(C(F)(F)F)nc3)C[C@H]2CCO)n1 : solubility value = 718

----------
target: C-X-C chemokine receptor type 3 (Homo sapiens); assay: Antagonist activity at CXCR3 (unknown origin) in human T cells in venous blood assessed as receptor internalization incubated for 30 mins in presence of CXCL10 by flow cytometric analysis; format: cell-based, T cell
Sequence (P49682 whole entry): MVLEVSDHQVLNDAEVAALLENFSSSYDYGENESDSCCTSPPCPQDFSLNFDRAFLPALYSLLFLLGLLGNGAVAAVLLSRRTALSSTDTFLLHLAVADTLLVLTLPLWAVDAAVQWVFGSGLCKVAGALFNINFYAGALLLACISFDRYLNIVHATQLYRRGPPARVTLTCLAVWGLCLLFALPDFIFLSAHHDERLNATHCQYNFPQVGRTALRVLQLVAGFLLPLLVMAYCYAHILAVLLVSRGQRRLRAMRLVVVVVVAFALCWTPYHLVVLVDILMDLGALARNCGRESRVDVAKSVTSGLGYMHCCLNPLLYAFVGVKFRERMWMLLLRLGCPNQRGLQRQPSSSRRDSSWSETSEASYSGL
reported-endpoint: IC50 (nM)
Kindly answer with a numeric value in nM, unit omitted.

CCc1ccn(CC(=O)N2CCN(c3sc(C(F)(F)F)nc3-c3cnc(C(F)(F)F)nc3)C[C@H]2CO)n1 : 33.7
CC(C)c1ncn(CC(=O)N2CCN(c3sc(C(F)(F)F)nc3-c3cnc(C(F)(F)F)nc3)C[C@H]2C)n1 : 128
Cc1ncn(CC(=O)N2CCN(c3sc(C(F)(F)F)nc3-c3cnc(C(F)(F)F)nc3)C[C@H]2C)n1 : 144

We now examine a further molecule.
// COCc1ncn(CC(=O)N2CCN(c3sc(C(F)(F)F)nc3-c3cnc(C(F)(F)F)nc3)C[C@H]2C)n1 : IC50 value = 440

----------
biological target: C-X-C chemokine receptor type 3 (Homo sapiens); experiment: Antagonist activity at CXCR3 in human whole blood assessed as receptor internalization incubated for 30 mins in presence of CXCL10 by flow cytometric analysis; assay type: tissue-based
reported-endpoint: IC50 (nM)
Kindly answer with a numeric value in nM, unit omitted.

// Cc1ncn(CC(=O)N2CCN(c3sc(C(F)(F)F)nc3-c3cnc(C(F)(F)F)nc3)C[C@H]2CCO)n1 : IC50 value = 56

----------
test: Protein binding in human plasma assessed as fraction unbound at 1 uM incubated for 6 hrs by rapid equilibrium dialysis based LC-MS/MS analysis; type: ADME, cell-free
reported-endpoint: fraction unbound at 6 h, 1 µM
Hey, just send me the number, nothing else.

Example cases with answers are listed next.
CCc1ncn(CC(=O)N2CCN(c3sc(C(F)(F)F)nc3-c3cnc(C(F)(F)F)nc3)C[C@H]2CCO)n1 : 0.15
Cc1ccn(CC(=O)N2CCN(c3sc(C(F)(F)F)nc3-c3cnc(C(F)(F)F)nc3)C[C@@H]2CO)n1 : 0.11

// Cc1ncn(CC(=O)N2CCN(c3sc(C(F)(F)F)nc3-c3cnc(C(F)(F)F)nc3)C[C@H]2CCO)n1 : fraction unbound at 6 h, 1 µM value = 0.23
